B1: Homeobox protein cut-like 2, residues 895 to 963; numbered along this chain, O14529 (parent)
chain: EVDTLELTRQVKEKLAKNGICQRIFGEKVLGLSQGSVSDMLSRPKPWSKLTQKGREPFIRMQLWLSDQL

variants of: B1; assay: abundance fitness (aPCA) (normalised: wild type 0, dead -1); higher = more abundant; growth selection in yeast, the domain comes from the species named; settings: Homo sapiens
# reported abundance fitness; entries follow

MUTATION_STRING | abundance fitness
P57R | -0.081
S38A | 0.015
V29S | -0.325
S36H | -0.062
M61V | -0.418
R43G | -0.233
W64T | -1.31
P57L | 0.087
I20K | -0.32
P46T | -0.08
V2S | -0.019
E13C | -0.205
S48N | -0.055
S66F | -0.2
A16M | -0.048
S36N | -0.045
L41N | -0.481
T4C | -0.3
K53P | -0.282
L7E | 0.016
V37H | -0.378
G31V | -0.514
